Molecular target: GAβ-dependent amyloid fibril formation (Human Aβ1-40 + GM1-containing liposome) (Homo sapiens)
Construct: Human Aβ1-40 (cat. #4307-v, prepared by Peptide Institute); purchased Peptide Institute 4307-v
Sequence (P05067 672-711 limits assumed): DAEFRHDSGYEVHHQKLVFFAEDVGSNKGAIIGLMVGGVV
Experiment: Thioflavin T (ThT) assay of GAβ-dependent amyloid fibril formation (Aβ1-40 with GM1-containing liposome)
Assay type: biochemical
Details: @5 μM; read-out: ThT Inhibitory activity (% inhibition)
// values below are reported inhibition at 5 µM

{"columns": ["compound", "inhibition at 5 µM"],
 "data": [
  ["O=C(N[C@@H](CO)c1nc(-c2ccc(OC(F)(F)F)cc2)no1)c1ccccc1", "51%"],
  ["NC(Cc1c[nH]c2ccccc12)c1nc(-c2ccc3c(c2)OC(F)(F)O3)no1 (stereo not drawn)", "38%"],
  ["O=C(N[C@@H](CO)c1nc(-c2ccc(C(F)(F)F)cc2)no1)c1ccccc1", "67%"],
  ["COc1ccc(-c2noc([C@H](CO)NC(=O)c3ccc(Cl)cc3)n2)cc1", "59%"],
  ["O=C1CC(c2nc(-c3ccc4c(c3)OC(F)(F)O4)no2)CN1c1ccc(Cl)cc1 (stereo not drawn)", "43%"],
  ["O=C(N[C@@H](CO)c1nc(-c2ccc(C(F)(F)F)cc2)no1)c1ccc(Cl)cc1", "68%"],
  ["O=C(NC(CO)c1nc(-c2ccc(O)cc2)no1)c1ccc(Cl)cc1 (stereo not drawn)", "52%"],
  ["O=C1CC(CO)(c2nc(-c3ccc(O)cc3)no2)CN1c1ccc(Cl)cc1 (stereo not drawn)", "47%"],
  ["O=C(N[C@@H](CO)c1nc(-c2ccc(OC(F)(F)F)cc2)no1)c1cccc(Cl)c1", "53%"]
]}

This collection of values is drawn from patent US10538516B2.
